- System: Mycobacterium tuberculosis (multidrugresistant strain)
- assay-name: microbe, parasite or virus in culture
- Assay type: cell-based
- assay-conditions: read-out: MIC, column C, 3(S) compounds
experimental-endpoint: MIC

Known results for compounds:
- chem-smiles: "CC(C)(C)c1ccc(CO[C@@H]2COc3nc([N+](=O)[O-])cn3C2)cc1"
  observed-value: "≤ 0.015 µg/mL"
- chem-smiles: "CCCCc1ccc(CO[C@@H]2COc3nc([N+](=O)[O-])cn3C2)cc1"
  observed-value: "≤ 0.015 µg/mL"
- chem-smiles: "O=[N+]([O-])c1cn2c(n1)OC[C@@H](OCc1ccc(OCc3ccccc3)cc1)C2"
  observed-value: "≤ 0.015 µg/mL"

Note: attention shifts to another entry.
Lab book: MIC of `O=[N+]([O-])c1cn2c(n1)OC[C@@H](OCc1ccc(OC(F)(F)F)cc1)C2` noted as 0.13 µg/mL
